Target: Glutamate receptor ionotropic kainate 2 (Homo sapiens)
Assay: Antagonist activity at human recombinant GluR6 expressed in HEK cells coexpressing aequorine assessed as inhibition of glutamate-induced Ca2+ influx at 10 uM by luminescence reporter assay relative to control
Details: HEK293
Give measured inhibition for each item. Keep answers brief.
Form entry: value (%) — number only.

Given the molecule Oc1nc(S)nc2sc3c(c12)CCCC3 , what is its reported inhibition?
0

Given the molecule CCOC(=O)c1cc(-c2ccccc2)sc1N , what is its reported inhibition?
-1

Given the molecule CCOC(=O)c1c(NC(=O)c2ccccc2)sc(-c2ccccc2)c1C , what is its reported inhibition?
5

Given the molecule Cc1c(-c2ccccc2)sc(N)c1C(=O)O , what is its reported inhibition?
44

Given the molecule CCOC(=O)Nc1cc(C)c(-c2ccccc2)s1 , what is its reported inhibition?
18

Given the molecule CCOC(=O)Nc1sc2c(c1C(N)=O)CCCC2 , what is its reported inhibition?
17

Given the molecule CCOC(=O)c1c(NC(=O)C(F)(F)F)sc(-c2ccccc2)c1C , what is its reported inhibition?
20

Given the molecule CCNC(=O)c1c(N)sc(-c2ccccc2)c1C , what is its reported inhibition?
4

Given the molecule CCNC(=O)Nc1sc2c(c1C(N)=O)CCCC2 , what is its reported inhibition?
12

Given the molecule CCNC(=O)Nc1sc(-c2ccccc2)c(C)c1C(N)=O , what is its reported inhibition?
17

Given the molecule CCOC(=O)c1c(N)sc2c1CCCC2 , what is its reported inhibition?
11

Given the molecule CCSc1nc2sc3c(c2c(=O)[nH]1)CCCC3 , what is its reported inhibition?
4

Given the molecule CCNC(=O)Nc1sc(-c2ccccc2)c(C)c1C(=O)OCC , what is its reported inhibition?
9

Given the molecule CCOC(=O)c1c(NC(=O)CN2CCOCC2)sc(-c2ccccc2)c1C , what is its reported inhibition?
9

Given the molecule CCOC(=O)c1c(NC)sc(-c2ccccc2)c1C , what is its reported inhibition?
19

---

Test: Cytotoxicity against monkey COS7 cells at 100 uM after 24 hrs by MTT assay
Conditions: chlorocebus aethiops, cos-7, 24 h
measured.property: Activity

Given the molecule CCOC(=O)c1c(N=C=S)sc(-c2ccccc2)c1C , what is its reported Activity?
Toxic

Given the molecule CCOC(=O)c1c(N)sc(-c2ccccc2)c1C , what is its reported Activity?
Toxic

Given the molecule CCCOC(=O)c1c(N)sc(-c2ccccc2)c1C , what is its reported Activity?
Toxic
